Reference for the values: patent US20260125378A2

For Full length DGKα (D21-10BG, SignalChem) (Homo sapiens, UniProt P23743), measured IC50 is reported for the entries below.
TEST_READOUT: IC50 (µM)

CCn1c(CC#N)nc2c(N3C[C@@H](C)N(C(C)c4cccc(C(F)(F)F)c4)C[C@@H]3C)nc(=O)n(C)c21 (single isomer, unassigned) [Compound A42a] = 78.7

1: CC(c1ccc2c(c1)OCCO2)N1C[C@H](C)N(c2c(F)c(=O)n(C)c3c2nc(CC#N)n3C)C[C@H]1C (single isomer, unassigned) [Compound A18b]
2: CC(c1ccc(C(F)(F)F)cn1)N1C[C@H](C)N(c2nc(=O)n(C)c3c2nc(CC#N)n3C)C[C@H]1C (single isomer, unassigned) [Compound A148b]
Looking at recorded values for IC50, does 1 or 2 come in lower? // respond with label for picked entry 2
